# System: HeLa Kyoto
# test summary: solubility change mitosis vs G1/S (difference of NP-40 vs SDS log2 ratios) (log2 ratio difference); higher = more soluble in mitosis
assay metric: solubility change mitosis (log2)
Numbers only.

Field: example entries. Status: answers known.
{"sequence data": "MMIHGFQSSHRDFCFGPWKLTASKTHIMKSADVEKLADELHMPSLPEMMFGDNVLRIQHGSGFGIEFNATDALRCVNNYQGMLKVACAEEWQESRTEGEHSKEVIKPYDWTYTTDYKGTLLGESLKLKVVPTTDHIDTEKLKAREQIKFFEEVLLFEDELHDHGVSSLSVKIRVMPSSFFLLLRFFLRIDGVLIRMNDTRLYHEADKTYMLREYTSRESKISSLMHVPPSLFTEPNEISQYLPIKEAVCEKLIFPERIDPNPADSQKSTQVE [TIPRL]", "quantitative result": -0.0696}
{"sequence data": "MGASSSSALARLGLPARPWPRWLGVAALGLAAVALGTVAWRRAWPRRRRRLQQVGTVAKLWIYPVKSCKGVPVSEAECTAMGLRSGNLRDRFWLVIKEDGHMVTARQEPRLVLISIIYENNCLIFRAPDMDQLVLPSKQPSSNKLHNCRIFGLDIKGRDCGNEAAKWFTNFLKTEAYRLVQFETNMKGRTSRKLLPTLDQNFQVAYPDYCPLLIMTDASLVDLNTRMEKKMKMENFRPNIVVTGCDAFEEDTWDELLIGSVEVKKVMACPRCILTTVDPDTGVIDRKQPLDTLKSYRLCDPSERELYKLSPLFGIYYSVEKIGSLRVGDPVYRMV [MARC2]", "quantitative result": 0.103}

Could you now look at the following sequence, please?
In: Indicate its recorded solubility change mitosis (log2); the sequence in question is MEEKPSGPIPDMLATAEPSSSETDKEVLSPAVPAAAPSSSMSEEPGPEQAATPPVWERGGAGGMQQGSSPAPDSCQPGPGPSPGLTSIVSGTSEDLRPPRRRPPPGKQIPCSSPGCCLSFPSVRDLAQHLRTHCPPTQSLEGKLFRCSALSCTETFPSMQELVAHSKLHYKPNRYFKCENCLLRFRTHRSLFKHLHVCAEHAQSPAPPPPPALDREPPAPERPPEVDPASAPGLPFPLLEPFTTPAPAPTGPFLPYLNPAPFGLSPPRLRPFLAAAPGPPASSAAVWKKSQGAGSSPRRPQGGSDAPSGACR [ZNF414]
Out: -0.445

====

Please go through the items and note down their solubility in G1/S (log2).
# System: HeLa Kyoto
# test summary: solubility in G1/S (NP-40 vs SDS abundance) (log2 ratio); higher = more soluble
# assay conditions: cell cycle stage: G1/S
Numbers only.

Would you be so kind as to report solubility in G1/S (log2) for each listed record?
1. MMIHGFQSSHRDFCFGPWKLTASKTHIMKSADVEKLADELHMPSLPEMMFGDNVLRIQHGSGFGIEFNATDALRCVNNYQGMLKVACAEEWQESRTEGEHSKEVIKPYDWTYTTDYKGTLLGESLKLKVVPTTDHIDTEKLKAREQIKFFEEVLLFEDELHDHGVSSLSVKIRVMPSSFFLLLRFFLRIDGVLIRMNDTRLYHEADKTYMLREYTSRESKISSLMHVPPSLFTEPNEISQYLPIKEAVCEKLIFPERIDPNPADSQKSTQVE [TIPRL]
2. MAILFAVVARGTTILAKHAWCGGNFLEVTEQILAKIPSENNKLTYSHGNYLFHYICQDRIVYLCITDDDFERSRAFNFLNEIKKRFQTTYGSRAQTALPYAMNSEFSSVLAAQLKHHSENKGLDKVMETQAQVDELKGIMVRNIDLVAQRGERLELLIDKTENLVDSSVTFKTTSRNLARAMCMKNLKLTIIIIIVSIVFIYIIVSPLCGGFTWPSCVKK [VAMP7]

Out:
1. 0.0228
2. -0.0498

====

Please go through the items and note down their thermal stability score.
# System: HeLa Kyoto
# test summary: thermal stability score vs G1/S (z-score of summed log2 fold changes over temperatures); higher = more thermally stable than in G1/S
# assay conditions: cell cycle stage: mitosis
Answers are plain numbers.

Field: example entries. Status: answers known.
{"sequence data": "MADGDSGSERGGGGGPCGFQPASRGGGEQETQELASKRLDIQNKRFYLDVKQNAKGRFLKIAEVGAGGSKSRLTLSMAVAAEFRDSLGDFIEHYAQLGPSSPEQLAAGAEEGGGPRRALKSEFLVRENRKYYLDLKENQRGRFLRIRQTVNRGGGGFGAGPGPGGLQSGQTIALPAQGLIEFRDALAKLIDDYGGEDDELAGGPGGGAGGPGGGLYGELPEGTSITVDSKRFFFDVGCNKYGVFLRVSEVKPSYRNAITVPFKAWGKFGGAFCRYADEMKEIQERQRDKLYERRGGGSGGGEESEGEEVDED [PURB]", "assay metric": "thermal stability score", "quantitative result": -5.37}
{"sequence data": "MFSSVAHLARANPFNTPHLQLVHDGLGDLRSSSPGPTGQPRRPRNLAAAAVEEQYSCDYGSGRFFILCGLGGIISCGTTHTALVPLDLVKCRMQVDPQKYKGIFNGFSVTLKEDGVRGLAKGWAPTFLGYSMQGLCKFGFYEVFKVLYSNMLGEENTYLWRTSLYLAASASAEFFADIALAPMEAAKVRIQTQPGYANTLRDAAPKMYKEEGLKAFYKGVAPLWMRQIPYTMMKFACFERTVEALYKFVVPKPRSECSKPEQLVVTFVAGYIAGVFCAIVSHPADSVVSVLNKEKGSSASLVLKRLGFKGVWKGLFARIIMIGTLTALQWFIYDSVKVYFRLPRPPPPEMPESLKKKLGLTQ [SLC25A3]", "assay metric": "thermal stability score", "quantitative result": -3.39}
{"sequence data": "MTDDKDVLRDVWFGRIPTCFTLYQDEITEREAEPYYLLLPRVSYLTLVTDKVKKHFQKVMRQEDISEIWFEYEGTPLKWHYPIGLLFDLLASSSALPWNITVHFKSFPEKDLLHCPSKDAIEAHFMSCMKEADALKHKSQVINEMQKKDHKQLWMGLQNDRFDQFWAINRKLMEYPAEENGFRYIPFRIYQTTTERPFIQKLFRPVAADGQLHTLGDLLKEVCPSAIDPEDGEKKNQVMIHGIEPMLETPLQWLSEHLSYPDNFLHISIIPQPTD [ATG5]", "assay metric": "thermal stability score", "quantitative result": 0.0242}
{"sequence data": "MEADASVDMFSKVLEHQLLQTTKLVEEHLDSEIQKLDQMDEDELERLKEKRLQALRKAQQQKQEWLSKGHGEYREIPSERDFFQEVKESENVVCHFYRDSTFRCKILDRHLAILSKKHLETKFLKLNVEKAPFLCERLHIKVIPTLALLKDGKTQDYVVGFTDLGNTDDFTTETLEWRLGSSDILNYSGNLMEPPFQNQKKFGTNFTKLEKKTIRGKKYDSDSDDD [TXNDC9]", "assay metric": "thermal stability score", "quantitative result": 0.636}
{"sequence data": "MAMLVLVPGRVMRPLGGQLWRFLPRGLEFWGPAEGTARVLLRQFCARQAEAWRASGRPGYCLGTRPLSTARPPPPWSQKGPGDSTRPSKPGPVSWKSLAITFAIGGALLAGMKHVKKEKAEKLEKERQRHIGKPLLGGPFSLTTHTGERKTDKDYLGQWLLIYFGFTHCPDVCPEELEKMIQVVDEIDSITTLPDLTPLFISIDPERDTKEAIANYVKEFSPKLVGLTGTREEVDQVARAYRVYYSPGPKDEDEDYIVDHTIIMYLIGPDGEFLDYFGQNKRKGEIAASIATHMRPYRKKS [SCO1]", "assay metric": "thermal stability score", "quantitative result": 1.59}

Would you be so kind as to report thermal stability score for each listed record?
1. MPLGLGRRKKAPPLVENEEAEPGRGGLGVGEPGPLGGGGSGGPQMGLPPPPPALRPRLVFHTQLAHGSPTGRIEGFTNVKELYGKIAEAFRLPTAEVMFCTLNTHKVDMDKLLGGQIGLEDFIFAHVKGQRKEVEVFKSEDALGLTITDNGAGYAFIKRIKEGSVIDHIHLISVGDMIEAINGQSLLGCRHYEVARLLKELPRGRTFTLKLTEPRKAFDMISQRSAGGRPGSGPQLGTGRGTLRLRSRGPATVEDLPSAFEEKAIEKVDDLLESYMGIRDTELAATMVELGKDKRNPDELAEALDERLGDFAFPDEFVFDVWGAIGDAKVGRY [GIPC1]
2. MAYAYLFKYIIIGDTGVGKSCLLLQFTDKRFQPVHDLTIGVEFGARMITIDGKQIKLQIWDTAGQESFRSITRSYYRGAAGALLVYDITRRDTFNHLTTWLEDARQHSNSNMVIMLIGNKSDLESRREVKKEEGEAFAREHGLIFMETSAKTASNVEEAFINTAKEIYEKIQEGVFDINNEANGIKIGPQHAATNATHAGNQGGQQAGGGCC [RAB2A]
3. MASSNTVLMRLVASAYSIAQKAGMIVRRVIAEGDLGIVEKTCATDLQTKADRLAQMSICSSLARKFPKLTIIGEEDLPSEEVDQELIEDSQWEEILKQPCPSQYSAIKEEDLVVWVDPLDGTKEYTEGLLDNVTVLIGIAYEGKAIAGVINQPYYNYEAGPDAVLGRTIWGVLGLGAFGFQLKEVPAGKHIITTTRSHSNKLVTDCVAAMNPDAVLRVGGAGNKIIQLIEGKASAYVFASPGCKKWDTCAPEVILHAVGGKLTDIHGNVLQYHKDVKHMNSAGVLATLRNYDYYASRVPESIKNALVP [BPNT1]
4. MAAAAKPNNLSLVVHGPGDLRLENYPIPEPGPNEVLLRMHSVGICGSDVHYWEYGRIGNFIVKKPMVLGHEASGTVEKVGSSVKHLKPGDRVAIEPGAPRENDEFCKMGRYNLSPSIFFCATPPDDGNLCRFYKHNAAFCYKLPDNVTFEEGALIEPLSVGIHACRRGGVTLGHKVLVCGAGPIGMVTLLVAKAMGAAQVVVTDLSATRLSKAKEIGADLVLQISKESPQEIARKVEGQLGCKPEVTIECTGAEASIQAGIYATRSGGNLVLVGLGSEMTTVPLLHAAIREVDIKGVFRYCNTWPVAISMLASKSVNVKPLVTHRFPLEKALEAFETFKKGLGLKIMLKCDPSDQNP [SORD]

Out:
1.49
-3.49
-1.21
-1.12

In: Indicate its recorded thermal stability score; the sequence in question is MYLQVETRTSSRLHLKRAPGIRSWSLLVGILSIGLAAAYYSGDSLGWKLFYVTGCLFVAVQNLEDWEEAIFDKSTGKVVLKTFSLYKKLLTLFRAGHDQVVVLLHDVRDVSVEEEKVRYFGKGYMVVLRLATGFSHPLTQSAVMGHRSDVEAIAKLITSFLELHCLESPTELSQSSDSEAGDPASQS [C17ORF62]
Out: -0.834
